target: T1, Suc-AAPE-pNA; conditions: scale: relative to the substrate with the highest activity
T1 chain: AAPE
Decision: relative activity (initial increase in OD405) beneath 0.003 gives t; relative activity (initial increase in OD405) meeting or exceeding 0.003 gives f.

Lysyl endopeptidase from Achromobacter lyticus (protein) GVSGSCNIDVVCPEGDGRRDIIRAVGAYSKSGTLACTGSLVNNTANDRKMYFLTAHHCGMGTASTAASIVVYWNYQNSTCRAPNTPASGANGDGSMSQTQSGSTVKATYATSDFTLLELNNAANPAFNLFWAGWDRRDQNYPGAIAIHHPNVAEKRISNSTSPTSFVAWGGGAGTTHLNVQWQPSGGVTEPGSSGSPIYSPEKRVLGQLHGGPSSCSATGTNRSDQYGRVFTSWTGGGAAASRLSDWLDPASTGAQFIDGLDSGGGTP    t
Glutamyl endopeptidase blaSE from Bacillus licheniformis (protein) SVIGSDDRTRVTNTTAYPYRAIVHISSSIGSCTGWMIGPKTVATAGHCIYDTSSGSFAGTATVSPGRNGTSYPYGSVKSTRYFIPSGWRSGNTNYDYGAIELSEPIGNTVGYFGYSYTTSSLVGTTVTISGYPGDKTAGTQWQHSGPIAISETYKLQYAMDTYGGQSGSPVFEQSSSRTNCSGPCSLAVHTNGVYGGSSYNRGTRITKEVFDNLTNWKNSAQ    f
Subtilisin 309 variant from Bacillus clausii (protein) AQSVPWGIERVQAPAAHNRGLTGSGVKVAVLDTGISTHPDLRIRGGASFVPGEPSTQDGNGHGTHVAGTIAALDNSIGVLGVAPSEALYAVKVLGASGSGSVSSIAQGLEWAGNNGMHVANLSLGSPSPSATLEQAVNSATSRGVLVVAASGNSGAGSISYPARYANAMAVGATDQNNNRASFSQYGAGLDIVAPGVNILSTWPGSTYASLNGTSMATPHVAGAAALVKQKNPSWSNVQIRNHLKNTATSLGDTWEYGSGLVNAEAATR    t
Thermostable alkaline protease BH0855 from Bacillus halodurans (protein) QTVPWGISFINTQQAHNRGIFGNGARVAVLDTGIASHPDLRIAGGASFISSEPSYHDNNGHGTHVAGTIAALNNSIGVLGVAPSADLYAVKVLDRNGSGSLASVAQGIEWAINNNMHIINMSLGSTSGSSTLELAVNRANNAGILLVGAAGNTGRQGVNYPARYSGVMAVAAVDQNGQRASFSTYGPEIEISAPGVNVNSTYTGNRYVSLSGTSMATPHVAGVAALVKSRYPSYTNNQIRQRINQTATYLGSPSLYGNGLVHAGRATQ    f
Glutamyl endopeptidase II sprE from Streptomyces griseus (protein) VLGGGAIYGGGSRCSAAFNVTKGGARYFVTAGHCTNISANWSASSGGSVVGVREGTSFPTNDYGIVRYTDGSSPAGTVDLYNGSTQDISSAANAVVGQAIKKSGSTTKVTSGTVTAVNVTVNYGDGPVYNMVRTTACSAGGDSGGAHFAGSVALGIHSGSSGCSGTAGSAIHQPVTEALSAYGVTVY    f

Q: Report whether reported relative activity (initial increase in OD405) is lower than 0.003 (strictly) for Subtilisin Carlsberg from Bacillus licheniformis (protein) AQTVPYGIPLIKADKVQAQGFKGANVKVAVLDTGIQASHPDLNVVGGASFVAGEAYNTDGNGHGTHVAGTVAALDNTTGVLGVAPSVSLYAVKVLNSSGSGSYSGIVSGIEWATTNGMDVINMSLGGASGSTAMKQAVDNAYARGVVVVAAAGNSGSSGNTNTIGYPAKYDSVIAVGAVDSNSNRASFSSVGAELEVMAPGAGVYSTYPTNTYATLNGTSMASPHVAGAAALILSKHPNLSASQVRNRLSSTATYLGSSFYYGKGLINVEAAAQ
Result: f
